- assay-system: Neu5Ac(a2-6)Gal(b1-4)GlcNAc(b1-3)Gal(b1-4)GlcNAc(b1-2)Man(a1-3)[Neu5Ac(a2-6)Gal(b1-4)GlcNAc(b1-3)Gal(b1-4)GlcNAc(b1-2)Man(a1-6)]GalNAc
- assay-name: glycan array binding signal (z-score within array); higher = stronger binding
- run-conditions: glycan notation: IUPAC condensed, linker removed
This excerpt belongs to a sample that is enriched for the strongest signals.

| binder | glycan array binding signal (z-score) |
| --- | --- |
| SP15308F-bth-333-19-333 (Bacteroides thetaiotaomicron) (protein) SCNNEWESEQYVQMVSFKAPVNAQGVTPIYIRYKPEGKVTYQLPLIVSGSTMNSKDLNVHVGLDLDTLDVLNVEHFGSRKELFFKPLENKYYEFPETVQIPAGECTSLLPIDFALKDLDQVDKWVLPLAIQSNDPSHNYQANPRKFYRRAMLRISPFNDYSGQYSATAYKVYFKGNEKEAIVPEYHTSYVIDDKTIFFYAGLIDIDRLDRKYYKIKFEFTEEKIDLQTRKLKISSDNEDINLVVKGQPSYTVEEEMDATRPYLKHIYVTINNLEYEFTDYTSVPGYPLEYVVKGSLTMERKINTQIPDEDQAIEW | 3.27 |
